All values here come from patent US20070178531A1.

- assay-system: T1, Mouse Id2: Histidine (mouse, UniProt P41136 1-134, limits assumed)
- T1 construct: Fusion protein made in E. coli from vector pGW07; also called m-Id2: His; not shown: His tag
- T1 sequence (looked up): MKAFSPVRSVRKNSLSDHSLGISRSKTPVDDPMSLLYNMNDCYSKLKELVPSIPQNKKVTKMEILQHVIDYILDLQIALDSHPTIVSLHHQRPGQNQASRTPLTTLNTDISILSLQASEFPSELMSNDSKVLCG
- test-protocol: ELISA, Ab 0.005 µg/ml
quantity: A450 (A450)
Expressed in A450, but write only the number.

Lookup result for rabbit monoclonal anti-human Id3, clone #BCH-4/#3-3 (antibody, V domains shown, Rabbit IgG from a rabbit hybridoma; also called h Id3 MoAb 3-3) VH: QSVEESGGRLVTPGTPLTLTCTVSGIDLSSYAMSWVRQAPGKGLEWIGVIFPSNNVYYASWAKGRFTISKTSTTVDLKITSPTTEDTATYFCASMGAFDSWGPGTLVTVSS VL: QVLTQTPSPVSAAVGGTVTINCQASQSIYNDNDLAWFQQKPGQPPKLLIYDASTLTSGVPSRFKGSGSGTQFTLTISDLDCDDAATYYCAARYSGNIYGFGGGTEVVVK ; measured A450: 0.048
